tested on: HOP-62; assay: NCI tumour cell line growth inhibition, 48 h
Active and inactive are the calls of the source. No stated cut-off is given here; in the data, active = GI50 up to about 1.1 µM and inactive = higher.
Hello, when you answer, please use one of the following outcomes: active, inactive

N#Cc1c(-c2ccc([N+](=O)[O-])cc2)cc(-c2ccc(Nc3ccnc4cc(Cl)ccc34)cc2)nc1N	inactive
CN(/N=C\c1ccc2ccccc2c1)C1=NCCCN1	inactive
NC(=S)NNC(=O)/C(=C/c1ccc(/C=C(\NC(=O)c2ccccc2)C(=O)NNC(N)=S)cc1)NC(=O)c1ccccc1	inactive
COc1cc(O)c2c(=O)cc(C3(O)C=CC(=O)C=C3)oc2c1	active
CO[C@@H]1C[C@H]2[C@@H]3CC[C@H]([C@@H](C)CO)[C@@]3(C)CC[C@@H]2[C@@]2(C)CC[C@H]3C[C@]312	inactive

Dear colleague, could you share the recorded outcome for C=CCNC1=C2C[C@@H](C)C[C@@H](OC)[C@@H](OC(=O)CCCN)[C@H](C)/C=C(\C)[C@@H](OC(N)=O)[C@H](OC)/C=C\C=C(/C)C(=O)NC(=CC1=O)C2=O when you have a moment? inactive

Assay outcome for COC(=O)c1ccccc1/C=C1/Cc2ccccc2C1=O : what was it? inactive

Call for entry COc1cc(C2c3cc4c(cc3[C@@H](N(C)c3ccc(N(C)C)cc3)C3COC(=O)C23)OCO4)cc(OC)c1O (some centres undefined) : inactive

I would be grateful if you could indicate the recorded call for CCCCCCCC(CC(=O)NC(CO)C(=O)NC(CO)CC(C)C)OC(=O)CC(CCCCCCC)OC(=O)CC(CCCCCCC)OC1OC(C)C(O)C(OC2OC(C)C(O)C(O)C2O)C1O (centres undefined) . inactive

Status in this test for COc1ccc(CN(Cc2ccc(OC)cc2)C(=O)CC2(O)C=CCC2)cc1 (centres undefined) ? inactive

Short answer needed: outcome of this test for CN1CC=C(C#CC(C)(C)O)CC1 ? inactive

What outcome does the record of this test show for CC(Cc1ccccc1)Nc1ncnc2c1ncn2C1OC(CO)CC1O (centres undefined) ? inactive

What did the test return for [N-]=[N+]=NCC1OC(n2cnc3c(N)ncnc32)C2OC12 (centres undefined) ? inactive

// param item: CS(=O)(=O)c1nc(-c2cc3c(c(S(C)(=O)=O)n2)CCCC3)cc2c1CCCC2 ; yields the recorded call inactive

Dear all, I need the recorded test outcome for CCNC1=C(NC(=O)CCl)C(=O)c2ccccc2C1=O , thank you. inactive
